Item-by-item account of kon
ASSAYED_SYSTEM: StrepII-tagged ROR1-extracellular domain (human, UniProt Q01973)
Sequence (Q01973 other isoform, or with tags, fused parts or gaps): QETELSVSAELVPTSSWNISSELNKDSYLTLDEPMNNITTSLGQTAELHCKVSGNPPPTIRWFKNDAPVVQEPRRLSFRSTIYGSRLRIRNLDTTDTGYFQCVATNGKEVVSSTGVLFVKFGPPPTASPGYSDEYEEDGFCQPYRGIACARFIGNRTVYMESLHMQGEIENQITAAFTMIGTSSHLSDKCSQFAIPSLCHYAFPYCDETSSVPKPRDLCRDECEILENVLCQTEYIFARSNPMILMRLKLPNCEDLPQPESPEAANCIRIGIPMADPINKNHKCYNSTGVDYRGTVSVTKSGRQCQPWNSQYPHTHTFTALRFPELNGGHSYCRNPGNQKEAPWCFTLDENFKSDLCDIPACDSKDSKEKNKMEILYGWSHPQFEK
PROCEDURE_DETAILS: SPR (Biacore T200), IgG from HEK293T supernatant captured by anti-human Fc, ROR1-strep as analyte, 1:1 model
Quick reminder: number only, in M⁻¹ s⁻¹, skip the unit.

Examples from the recorded data:
huR12_16, humanized from R12 (antibody, V domains shown) VH: QVQLVESGGELVTPGGSLTLSCKASGFDFSAYYMSWVRQAPGKGLEWIASIYPSSGKTYYAAAVQGRFTISADNAKNTVYLQMNSLTAADTATYFCARDSYADDGALFNIWGQGTLVTVSS VL: QLVLTQSPSVSAALGSSAKITCTLSSAHKTDTIDWYQQLAGQAPRYLMYVQSDGSYEKRSGVPDRFSGSSSGADRYLIISSVQADDEADYYCGADYIGGYVFGGGTQLTVG: 960000
huR12_7, humanized from R12 (antibody, V domains shown) VH: QVQLVESGGELVQPGGSLTLSCKASGFDFSAYYMSWVRQAPGKGLEWIATIYPSSGKTYYAASVQGRFTISADNAKNTVSLQMNSLTAADTATYFCARDSYADDGALFNIWGKGTLVTVSS VL: QLVLTQSPSVSAALGSSAKITCTLSSAHKTDTIDWYQQLAGQAPRYLMYVQSDGSYEKRSGVPDRFSGSSSGADRYLIISSVQADDEADYYCGADYIGGYVFGGGTQLTVLG: 1.05e+06
huR12_4, humanized from R12 (antibody, V domains shown) VH: QVQLVESGGELVQPGGSLTLSCKASGFDFSAYYMSWVRQAPGKGLEWIATIYPSSGKTYYAASVQGRFTISADNAKNTVYLQMNSLTAADTATYFCARDSYADDGALFNIWGKGTLVTVSS VL: QLVLTQSPSVSAALGSSAKITCTLSSAHKTDTIDWYQQLAGQAPRYLMYVQSDGSYEKRSGVPDRFSGSASGADRYLAISRVQADDEADYYCGADYIGGYVFGGGTQLTVLG: 1.09e+06
Chimeric mAb R12 (antibody, V domains shown) VH: QEQLVESGGRLVTPGGSLTLSCKASGFDFSAYYMSWVRQAPGKGLEWIATIYPSSGKTYYATWVNGRFTISSDNAQNTVDLQMNSLTAADRATYFCARDSYADDGALFNIWGPGTLVTISS VL: ELVLTQSPSVSAALGSPAKITCTLSSAHKTDTIDWYQQLQGEAPRYLMQVQSDGSYTKRPGVPDRFSGSSSGADRYLIIPSVQADDEADYYCGADYIGGYVFGGGTQLTVT: 349000

Lab note: next binder to report on.
Consider the binder huR12_11, humanized from R12 (antibody, V domains shown) VH: QVQLVESGGALVQPGGSLTLSCKASGFDFSAYYMSWVRQAPGKGLEWIATIYPSSGKTYYAASVQGRFTISADNAKNTVYLQMNSLTAADTATYFCARDSYADDGALFNIWGQGTLVTVSS VL: QLVLTQSPSVSAALGSSAKITCTLSSAHKTDTIDWYQQLAGQAPRYLMYVQSDGSYEKRSGVPDRFSGSSSGADRYLIISSVQADDEADYYCGADYIGGYVFGGGTQLTVG and give its measured kon.
1.15e+06
